Endpoint summary: pIC50, system: the protein given by its sequence, multiple sources combined.
Target sequence: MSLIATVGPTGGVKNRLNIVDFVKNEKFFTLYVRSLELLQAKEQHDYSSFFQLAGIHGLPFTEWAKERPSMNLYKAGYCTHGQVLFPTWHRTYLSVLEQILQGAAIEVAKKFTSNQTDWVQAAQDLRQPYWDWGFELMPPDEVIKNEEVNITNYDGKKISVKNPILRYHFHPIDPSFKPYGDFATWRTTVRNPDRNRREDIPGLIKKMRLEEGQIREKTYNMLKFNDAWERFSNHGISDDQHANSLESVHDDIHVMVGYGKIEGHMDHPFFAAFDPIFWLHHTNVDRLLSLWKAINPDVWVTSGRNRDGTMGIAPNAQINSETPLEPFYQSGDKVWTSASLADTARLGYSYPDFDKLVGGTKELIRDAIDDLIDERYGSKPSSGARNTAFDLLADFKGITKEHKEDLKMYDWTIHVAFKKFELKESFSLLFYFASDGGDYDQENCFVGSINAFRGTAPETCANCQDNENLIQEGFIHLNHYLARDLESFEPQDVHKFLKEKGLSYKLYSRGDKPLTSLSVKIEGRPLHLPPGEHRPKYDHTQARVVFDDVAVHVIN
Numbers only, as −log10 of the molar value.

COc1ccc(NC2=NC(=O)/C(=C/c3cn(-c4ccccc4)nc3-c3ccc(Cl)cc3Cl)S2)c(OC)c1
4.09
O=C(NCc1ccc(O)cc1)c1cc(O)cc(O)c1
3.15
Oc1ccc(-c2ccc3cc(O)ccc3c2)c(O)c1
7.47

Quick batch: pIC50 for everything below.
1. O=C(/C=C/c1ccc(O)cc1O)c1c(O)cc(O)cc1O
2. O=C(c1ccc(F)cc1)N1CCN(Cc2ccc(F)cc2)CC1
3. COc1cc(-c2cccc(OCc3ccccc3)c2)cc(OC)c1OC
4. C/C(=N\NC(N)=S)c1cccc(NC(=O)C(C)(C)C)c1
5. NC(=S)N/N=C/c1ccc(F)cc1
6. COc1cc(O)cc(O)c1C(=O)/C=C/c1ccc(O)cc1O
7. NC(=S)N/N=C/c1ccc[nH]1

1. 6.00
2. 5.11
3. 3.26
4. 5.36
5. 4.96
6. 5.51
7. 5.10
